All values here come from patent US20100144645A1.

experimentalProtocol: stability 90 C., 20 min (V, BP, TW, BS) of hydrocodone conjugates
recordedConditions: BP (abbreviation not defined)
Residues, ends and D or L forms follow the SMILES beside them. *: point of attachment. X1 = COc1ccc2c3c1OC1C(O*)=CCC4[C@@H](C2)N(C)CC[C@]314
Classify by measured stability 90 C., 20 min BP: met if it is equal to or exceeds 70, not met if it is smaller.

Examples with answers:
{"compound": "CC[C@H](C)[C@H](NC(=O)[C@@H]1CCCN1C(=O)[C@@H]1CCCN1)C(=O)OC1=CCC2[C@H]3Cc4ccc(OC)c5c4[C@@]2(CCN3C)C1O5 (stereo partly shown)", "classification": "not met"}
{"compound": "COc1ccc2c3c1OC1C(OC(=O)[C@H](CC(C)C)NC(=O)[C@@H]4CCCN4C(=O)[C@@H]4CCCN4)=CCC4[C@@H](C2)N(C)CC[C@]314 (stereo partly shown)", "classification": "met"}
{"compound": "CC[C@H](C)[C@H](NC(=O)[C@H](CCC(=O)O)NC(=O)[C@H](CCC(=O)O)NC(=O)CNC(=O)CN)C(=O)OC1=CCC2[C@H]3Cc4ccc(OC)c5c4[C@@]2(CCN3C)C1O5 (stereo partly shown) [Gly2-Glu2-Ile-HC] (H-GGEEI-X1)", "classification": "met"}
{"compound": "CC[C@H](C)[C@H](NC(=O)[C@@H]1CCCN1C(=O)[C@@H]1CCCN1C(=O)CNC(=O)CN)C(=O)OC1=CCC2[C@H]3Cc4ccc(OC)c5c4[C@@]2(CCN3C)C1O5 (stereo partly shown) [Gly2-Pro2-Ile-HC] (H-GGPPI-X1)", "classification": "met"}
{"compound": "CC[C@H](C)[C@H](NC(=O)[C@H](CC(=O)O)NC(=O)[C@H](CC(=O)O)NC(=O)[C@H](CCC(=O)O)NC(=O)[C@@H](N)CCC(=O)O)C(=O)OC1=CCC2[C@H]3Cc4ccc(OC)c5c4[C@@]2(CCN3C)C1O5 (stereo partly shown) [Glu2-Asp2-Ile-HC] (H-EEDDI-X1)", "classification": "met"}
{"compound": "CC[C@H](C)[C@H](NC(=O)[C@H](CC(=O)O)NC(=O)[C@H](CC(=O)O)NC(=O)[C@H](CCCCN)NC(=O)[C@@H](N)CCCCN)C(=O)OC1=CCC2[C@H]3Cc4ccc(OC)c5c4[C@@]2(CCN3C)C1O5 (stereo partly shown) [Lys2-Asp2-Ile-HC] (H-KKDDI-X1)", "classification": "not met"}
{"compound": "CC[C@H](C)[C@H](NC(=O)[C@H](Cc1ccccc1)NC(=O)[C@H](Cc1ccccc1)NC(=O)[C@H](Cc1ccc(O)cc1)NC(=O)[C@@H](N)Cc1ccc(O)cc1)C(=O)OC1=CCC2[C@H]3Cc4ccc(OC)c5c4[C@@]2(CCN3C)C1O5 (stereo partly shown) [Tyr2-Phe2-Ile-HC] (H-YYFFI-X1)", "classification": "not met"}
{"compound": "COc1ccc2c3c1OC1C(OC(=O)[C@H](Cc4ccccc4)NC(=O)[C@@H]4CCCN4C(=O)[C@@H](N)CC(C)C)=CCC4[C@@H](C2)N(C)CC[C@]314 (stereo partly shown)", "classification": "met"}

Inquiry: Exam item: decide whether the reported stability 90 C., 20 min BP for CC[C@H](C)[C@H](NC(=O)[C@H](CC(C)C)NC(=O)[C@@H]1CCCN1)C(=O)OC1=CCC2[C@H]3Cc4ccc(OC)c5c4[C@@]2(CCN3C)C1O5 (stereo partly shown) is at least 70.
Reply text: met

Inquiry: Exam item: decide whether the reported stability 90 C., 20 min BP for CC[C@H](C)[C@H](NC(=O)[C@H](Cc1ccc(O)cc1)NC(=O)[C@@H](N)Cc1ccc(O)cc1)C(=O)OC1=CCC2[C@H]3Cc4ccc(OC)c5c4[C@@]2(CCN3C)C1O5 (stereo partly shown) is at least 70.
Reply text: not met

Inquiry: Exam item: decide whether the reported stability 90 C., 20 min BP for COc1ccc2c3c1OC1C(OC(=O)[C@H](Cc4ccccc4)NC(=O)[C@H](Cc4ccccc4)NC(=O)[C@H](Cc4ccccc4)NC(=O)[C@H](CCC(=O)O)NC(=O)[C@@H](N)CCC(=O)O)=CCC4[C@@H](C2)N(C)CC[C@]314 (stereo partly shown) [Glu2-Phe3-HC, Glu2-Phe3-Hydrocodone] (H-EEFFF-X1) is at least 70.
Reply text: met

Inquiry: Exam item: decide whether the reported stability 90 C., 20 min BP for CC[C@H](C)[C@H](NC(=O)[C@H](CCCCN)NC(=O)[C@@H](N)CCCCN)C(=O)OC1=CCC2[C@H]3Cc4ccc(OC)c5c4[C@@]2(CCN3C)C1O5 (stereo partly shown) is at least 70.
Reply text: met

###

experimentalProtocol: Oral bioavailability of hydromorphone conjugates
recordedConditions: rats, corrected value calculated based on the control (HM)
Structures can show the parent of a compound that is named as a salt. Residues, ends and D or L forms follow the SMILES beside them. *: point of attachment. X2 = CN1CC[C@]23c4c5ccc(O)c4O[C@H]2C(O*)=CC[C@H]3[C@H]1C5; X3 = CN1CC[C@]23c4c5ccc(O)c4OC2C(O*)=CCC3[C@H]1C5
For each entry below, report its Oral Cmax % value.
Numbers only, in %.

For orientation, consider the following solved cases.
{"compound": "CC[C@H](C)[C@H](NC(=O)[C@H](CCC(=O)O)NC(=O)[C@@H](N)CCC(=O)O)C(=O)OC1=CC[C@H]2[C@H]3Cc4ccc(O)c5c4[C@@]2(CCN3C)[C@H]1O5", "Oral Cmax %, %": 73}
{"compound": "CC[C@H](C)[C@H](NC(=O)[C@H](Cc1ccccc1)NC(=O)[C@H](Cc1ccccc1)NC(=O)[C@H](Cc1ccc(O)cc1)NC(=O)[C@@H](N)Cc1ccc(O)cc1)C(=O)OC1=CCC2[C@H]3Cc4ccc(O)c5c4[C@@]2(CCN3C)C1O5 (stereo partly shown) [YYFFI-HM] (H-YYFFI-X3)", "Oral Cmax %, %": 52}

Provide Oral Cmax % values for the following items, in order.
1. CC(C)C[C@H](NC(=O)[C@H](Cc1ccc(O)cc1)NC(=O)[C@@H](N)Cc1ccc(O)cc1)C(=O)OC1=CCC2[C@H]3Cc4ccc(O)c5c4[C@@]2(CCN3C)C1O5 (stereo partly shown)
2. CC(C)[C@H](NC(=O)[C@H](Cc1ccc(O)cc1)NC(=O)[C@@H](N)Cc1ccc(O)cc1)C(=O)OC1=CCC2[C@H]3Cc4ccc(O)c5c4[C@@]2(CCN3C)C1O5 (stereo partly shown)
3. CC(C)C[C@H](NC(=O)[C@H](Cc1ccccc1)NC(=O)[C@@H](N)Cc1ccccc1)C(=O)OC1=CC[C@H]2[C@H]3Cc4ccc(O)c5c4[C@@]2(CCN3C)[C@H]1O5
4. CC(C)C[C@H](NC(=O)[C@H](CCCCN)NC(=O)[C@@H](N)CCCCN)C(=O)OC1=CCC2[C@H]3Cc4ccc(O)c5c4[C@@]2(CCN3C)C1O5 (stereo partly shown)
5. CN1CC[C@]23c4c5ccc(O)c4O[C@H]2C(OC(=O)[C@H](Cc2ccccc2)NC(=O)[C@H](Cc2ccccc2)NC(=O)[C@H](Cc2ccccc2)NC(=O)[C@H](CCC(=O)O)NC(=O)[C@@H](N)CCC(=O)O)=CC[C@H]3[C@H]1C5 [EEFFF-HM, Glu2-Phe3-Hydromorphone.Dihydrochloride] (H-EEFFF-X2)
6. CC[C@H](C)[C@H](NC(=O)[C@H](Cc1ccccc1)NC(=O)[C@@H](N)Cc1ccccc1)C(=O)OC1=CC[C@H]2[C@H]3Cc4ccc(O)c5c4[C@@]2(CCN3C)[C@H]1O5
7. CC(C)C[C@H](NC(=O)[C@H](CCC(=O)O)NC(=O)[C@@H](N)CCC(=O)O)C(=O)OC1=CC[C@H]2[C@H]3Cc4ccc(O)c5c4[C@@]2(CCN3C)[C@H]1O5

Reply text:
[30, 53, 24, 50, 78, 47, 49]

Inquiry: Fill in: Oral Cmax % of CC[C@H](C)[C@H](NC(=O)[C@H](CCCCN)NC(=O)[C@@H](N)CCCCN)C(=O)OC1=CCC2[C@H]3Cc4ccc(O)c5c4[C@@]2(CCN3C)C1O5 (stereo partly shown) is ___
Reply text: 56

###

experimentalProtocol: Oral bioavailability of hydrocodone conjugates (plasma hydrocodone plus hydromorphone)
recordedConditions: ratio of oral to IN Cmax (% HC)
Residues, ends and D or L forms follow the SMILES beside them. *: point of attachment. X1 = COc1ccc2c3c1OC1C(O*)=CCC4[C@@H](C2)N(C)CC[C@]314
For each entry below, report its Oral:IN Index Cmax value.
Answers are plain numbers.

{"compound": "CC[C@H](C)[C@H](NC(=O)[C@@H]1CCCN1C(=O)[C@@H]1CCCN1C(=O)[C@H](CCCCN)NC(=O)[C@@H](N)CCCCN)C(=O)OC1=CCC2[C@H]3Cc4ccc(OC)c5c4[C@@]2(CCN3C)C1O5 (some centres unmarked) [Lys2-Pro2-Ile-HC] (H-KKPPI-X1)", "testValue": 0.81}

Turning to the following compound.
Inquiry: Fill in: Oral:IN Index Cmax of CC[C@H](C)[C@H](NC(=O)[C@H](Cc1ccccc1)NC(=O)[C@H](Cc1ccccc1)NC(=O)[C@H](CCC(=O)O)NC(=O)[C@@H](N)CCC(=O)O)C(=O)OC1=CCC2[C@H]3Cc4ccc(OC)c5c4[C@@]2(CCN3C)C1O5 (some centres unmarked) [Glu2-Phe2-Ile-HC] (H-EEFFI-X1) is ___
Reply text: 1.70
